# Study target: human DGAT2 (Homo sapiens, UniProt Q96PD7)
# Construct: FLAG (DYKDDDDK); membrane fraction used
# Sequence (Q96PD7 whole entry): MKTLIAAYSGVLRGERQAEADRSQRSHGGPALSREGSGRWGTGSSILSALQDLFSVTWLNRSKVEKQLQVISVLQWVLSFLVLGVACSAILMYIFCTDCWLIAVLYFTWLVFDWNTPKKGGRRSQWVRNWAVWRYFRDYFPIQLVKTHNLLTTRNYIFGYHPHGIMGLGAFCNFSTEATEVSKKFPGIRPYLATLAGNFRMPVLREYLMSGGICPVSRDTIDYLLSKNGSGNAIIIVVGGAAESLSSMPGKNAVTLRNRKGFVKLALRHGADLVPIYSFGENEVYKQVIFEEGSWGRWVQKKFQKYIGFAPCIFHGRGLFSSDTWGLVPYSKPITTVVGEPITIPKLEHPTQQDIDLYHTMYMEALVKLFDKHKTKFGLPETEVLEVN
# Assay procedure: DGAT2 enzyme activity inhibition, Phospholipid FlashPlate SPA
# Condition parameters: recombinant human DGAT2 membrane protein from Sf-21 cells; inhibition of [14C]-TG production; 37° C.
Endpoint label: IC50 (nM)

>  <Structure notation>
CCOc1ccccc1O[C@@H]1CCCN(c2cncc(Nc3nccc(-c4cccc(C(C)(C)C(=O)O)c4)n3)n2)C1

>  <IC50 / nM>
1600

$$$$

1 = CCOc1ccccc1O[C@@H]1CCCN(c2cncc(Nc3cccc(CC(C)(C)C(=O)O)n3)n2)C1
2 = CCOc1ccccc1O[C@@H]1CCCN(c2cncc(Nc3nccc(Oc4ccc(CC(=O)O)cc4)n3)n2)C1
3 = CCOc1ccccc1O[C@@H]1CCCN(c2cncc(Nc3nc(-c4cccc(CC(C)(C)C(=O)O)c4)ccc3F)n2)C1
Put these in order: smallest IC50 first, largest last. Field: ranking. Enter the labels in the order requested. 2, 3, 1
